# Test system: HL-60
# TEST SUMMARY: Antiproliferative activity against human HL-60 cells assessed as inhibition of cell growth
# Assay type: functional, cell-based
ENDPOINT LABEL: pIC50
Lab note — pIC50 values are minus log10 of concentrations in M.

CN(C)CCN1C(=O)c2cccc3c(NCCNCCNCCNCCN)ccc(c23)C1=O
4.88
CN(C)CCN1C(=O)c2cccc3c(NCCNCCNCCN)ccc(c23)C1=O
4.88

Please look at the following compound next.
stdin: State its pIC50 for this compound: CN(C)CCN1C(=O)c2cccc3c(NCCNCCN)ccc(c23)C1=O
stdout: 4.88

----------
Items are presented alongside their recorded K.
# System: Calf thymus DNA
# TEST SUMMARY: Binding affinity to calf thymus DNA assessed as binding constant by fluorescence based EtBr-displacement based UV-Vis spectroscopic analysis
# Type: nucleic-acid assay
# ASSAY CONDITIONS: Bos taurus

// solved cases for K follow
O=C1c2cccc3c([N+](=O)[O-])ccc(c23)C(=O)N1c1ccc(-c2cc[n+]3c(c2)-c2cccc[n+]2CC3)cc1
1.7 10^7/M
Cc1ccc(-c2cc[n+]3c(c2)-c2cccc[n+]2CC3)cc1
2.8 10^6/M
O=C1c2cccc3c([N+](=O)[O-])ccc(c23)C(=O)N1c1cccc(-c2cc[n+]3c(c2)-c2cccc[n+]2CC3)c1
6.5 10^6/M

Please look at the following compound next.
stdin: State its K for this compound: Nc1ccc2c3c(cccc13)C(=O)N(c1cccc(-c3cc[n+]4c(c3)-c3cccc[n+]3CC4)c1)C2=O
stdout: 2.3 10^6/M

----------
# System: 786-0
# TEST SUMMARY: Cytotoxicity against human 786-0 cells assessed as cell growth inhibition incubated for 48 hrs by sulforhodamine B reagent assay
# Type: functional, cell-based
# ASSAY CONDITIONS: 786-0, 48 h
Items are presented alongside their recorded pIC50.
Lab note — pIC50 values are minus log10 of concentrations in M.

CN1CCN(c2ccc3nc(-c4ccc(OCCCN5C(=O)c6cccc7cccc(c67)C5=O)cc4)[nH]c3c2)CC1
6.96

Please look at the following compound next.
stdin: Under 786-0: report pIC50 of O=C1c2cccc3cccc(c23)C(=O)N1CCCCOc1ccc(-c2nc3ccc(N4CCOCC4)cc3[nH]2)cc1 .
stdout: 6.96

----------
# System: Calf thymus DNA
# TEST SUMMARY: Binding affinity to calf thymus DNA assessed as DNA intercalation by measuring change in melting temperature by thermal denaturation assay
# Assay type: nucleic-acid assay
# ASSAY CONDITIONS: Bos taurus
ENDPOINT LABEL: ΔTm (°C)
Quick reminder: number only, in °C, skip the unit.

// solved cases for ΔTm follow
O=C1c2ccc3c4c(ccc(c24)C(=O)N1c1nc(-c2cc4cc(Br)ccc4oc2=O)cs1)C(=O)N(c1nc(-c2cc4cc(Br)ccc4oc2=O)cs1)C3=O
0.1
CN(C)CCN1C(=O)c2cccc3c(NCCNCCN)ccc(c23)C1=O
11.8
COc1cccc2cc(-c3csc(N4C(=O)c5ccc6c7c(ccc(c57)C4=O)C(=O)N(c4nc(-c5cc7cccc(OC)c7oc5=O)cs4)C6=O)n3)c(=O)oc12
0.1

Please look at the following compound next.
stdin: Under Calf thymus DNA: report ΔTm of O=C1c2cccc3cccc(c23)C(=O)N1c1nc(-c2cc3ccccc3oc2=O)cs1 .
stdout: 0.1

Ref: ChEMBL document CHEMBL5244223
